The reported measurements were obtained from patent US8809280B2.

- System: methicillin resistant Staphylococcus epidermidis (ATCC 27626)
- Assay: microbe, parasite or virus in culture
- Assay type: cell-based
- Settings: Staphylococcus epidermidis, ATCC 27626 / MRSE, Example 2; values separated by / are repeat tests; read-out: Antimicrobial potency (MIC) MRSE
Readout Label: MIC (µg/mL)

Example cases with answers are listed next.
Cc1cc(C)cc(CC(CN)(Cc2cc(C)cc(C)c2)C(=O)NCCN(C)C)c1 : 10
CN(C)CCNC(=O)C(CN)(Cc1ccc(C(F)(F)F)cc1)Cc1ccc(C(F)(F)F)cc1 : 15
NCCNC(=O)C(CN)(CCc1ccccc1)CCc1ccccc1 : 50

(I) CC(C)c1ccc(CC(CN)(Cc2ccc(C(C)C)cc2)C(=O)NCCN)cc1
(II) NCCNC(=O)C(CN)(CCCc1ccccc1)CCCc1ccccc1
Exercise: For I and II , which recorded MIC is lower? Answer format: the label of the selected item.
Solution: I

---

- Tested on: Escherichia coli (ATTC 25922)
- Assay: microbe, parasite or virus in culture
- Assay type: cell-based
- Settings: Escherichia coli, Example 2; values separated by / are repeat tests; read-out: Antimicrobial potency (MIC) E. coli
Readout Label: MIC (µg/mL)

CN(C)CCNC(=O)C(CN)(Cc1ccc2ccccc2c1)Cc1ccc2ccccc2c1 : 15

(I) CN(C)CCNC(=O)C(CN)(Cc1ccc(C(F)(F)F)cc1)Cc1ccc(C(F)(F)F)cc1
(II) NCCNC(=O)C(CN)(CCC1CCCCC1)CCC1CCCCC1
Exercise: // which entry has the larger MIC value, I or II ? Answer format: the label of the selected item.
Solution: I
(I: 35 µg/mL, II: 15 µg/mL)

---

- Test system: Escherichia coli (ATTC 25922)
- Assay: microbe, parasite or virus in culture
- Type: cell-based
- Settings: Escherichia coli, Example 2; values separated by / are repeat tests; read-out: Antimicrobial potency (MIC) E. coli
Readout Label: MIC (µg/mL)

(I) CN(C)CCNC(=O)C(CN)(CCCc1ccccc1)CCCc1ccccc1
(II) NCCNC(=O)C(CN)(Cc1ccc2ccccc2c1)Cc1ccc2ccccc2c1
(III) NCCNC(=O)C(CN)(CCCc1ccccc1)CCCc1ccccc1
Exercise: Rank descending by MIC: all 3 compounds from above. Record the ranking as a list of labels in the requested order.
Solution: III, I, II
(III: 200 µg/mL, I: 100 µg/mL, II: 15 µg/mL)

---

- System: A20
- Assay: cells
- Assay type: cell-based
- Settings: ratio of MRC-5 to A20 values
Readout Label: Anti-Cancer Selectivity MRC-5/A20

Cc1cc(C)cc(CC(CN)(Cc2cc(C)cc(C)c2)C(=O)NCCN)c1 : (>2 )
NCCNC(=O)C(CN)(Cc1ccc2ccccc2c1)Cc1ccc2ccccc2c1 : 19.3-20
NCCNC(=O)C(CN)(Cc1ccc(C(F)(F)F)cc1)Cc1ccc(C(F)(F)F)cc1 : 10-12

---

- System: Escherichia coli (ATTC 25922)
- Assay: microbe, parasite or virus in culture
- Format: cell-based
- Settings: Escherichia coli, Example 2; values separated by / are repeat tests; read-out: Antimicrobial potency (MIC) E. coli
- Protocol: The antimicrobial testing was conducted by TosLab A/S (Tromsø, Norway). Each compound was diluted to 1 mg/ml in water and tested in duplicates at 200, 100, 50, 35, 15, 10, 5, 2.5, 1, 0.5 μg/ml except 4n which was tested at 50, 35, 15, 10, 5, 2.5, 1, 0.5 μg/ml due to solubility problems. All tested compounds were di TFA salts. The bacterial strains were grown in 2% Bacto Peptone water until exponential growth was achieved. […] A bacterial concentration of 2×10^6 cfu/ml was used. […]
Examples of molecules with documented MIC follow.

Example cases with answers are listed next.
NCCNC(=O)C(CN)(CCc1ccccc1)CCc1ccccc1 [Compound 5] : > 200 µg/mL
CCCC(CN)(CCC)C(=O)NCCN [Compound 1] : > 200 µg/mL

Pending molecule:
Exercise: Param readout = MIC; param system = Escherichia coli (ATTC 25922); param query = CN(C)CCNC(=O)C(CN)(Cc1ccccc1)Cc1ccccc1 [Compound 23] ; response: value
Solution: > 100 µg/mL
